Source listed as patent US8324390B2.

# reported pest or weed control at 100 g/ha; entries follow
Tested on: larvae of the mustard beetle (Phaedon cochleariae)
Experiment: Phaedon test (PHAECO spray treatment)
Settings: Phaedon cochleariae, in Brassica rapa, foliar, read-out: effect in % (beetle larvae killed)

| molecule | pest or weed control at 100 g/ha |
| --- | --- |
| Cc1cc(Cl)cc(C(=O)NC2CC2)c1NC(=O)c1cc(Cn2nnnc2C(F)(F)F)nn1-c1ncccc1Br | ≥ 80% |
| Cc1cc(C#N)cc(C(=O)NCC(F)F)c1NC(=O)c1cc(Cn2nnc(C(F)(C(F)(F)F)C(F)(F)F)n2)nn1-c1ncccc1Cl | ≥ 80% |
| Cc1cc(C#N)cc(C(=O)NC(C)(C)C)c1NC(=O)c1cc(Cn2nnc(C(F)(F)F)n2)nn1-c1ccccc1Br | ≥ 80% |
| CSC[C@H](C)NC(=O)c1cc(C)cc(C)c1NC(=O)c1cc(Cn2nnc(C(F)(F)F)n2)nn1-c1ncccc1Cl | ≥ 80% |
| CNC(=O)c1cc(Cl)cc(C)c1NC(=O)c1cc(Cn2nnc(C3CC3)n2)nn1-c1ncccc1Cl | ≥ 80% |
| CC(NC(=O)c1cc(Cl)cc(Cl)c1NC(=O)c1cc(Cn2nnnc2C(F)(F)C(F)(F)F)nn1-c1ncccc1Cl)C1CC1 (stereo not shown) | ≥ 80% |
| Cc1cc(Cl)cc(C(=O)NC2CCC2)c1NC(=O)c1cc(Cn2nnc(C(F)(F)C(F)(F)F)n2)nn1-c1ncccc1Cl | ≥ 80% |

###

Tested on: larvae of the mustard beetle (Phaedon cochleariae)
Test: Phaedon test (PHAECO spray treatment)
Conditions: Phaedon cochleariae, in Brassica rapa, foliar, read-out: effect in % (beetle larvae killed)
# reported pest or weed control at 100 g/ha; entries follow

| compound | pest or weed control at 100 g/ha |
| --- | --- |
| Cc1cc(Br)cc(C(=O)NC2CCC2)c1NC(=O)c1cc(Cn2nnc(C(F)(F)F)n2)nn1-c1ncccc1Cl | ≥ 80% |
| Cc1cc(I)cc(C(=O)NC(C)C)c1NC(=O)c1cc(Cn2nnc(C(F)(F)F)n2)nn1-c1ncccc1Br | ≥ 80% |
| Cc1cc(C#N)cc(C(=O)NC(C)C)c1NC(=O)c1cc(Cn2nnc(C(F)(F)F)n2)nn1-c1ccccc1Cl | ≥ 80% |
| CNC(=O)c1cc(C#N)cc(C)c1NC(=O)c1cc(Cn2nnnc2C(F)(F)C(F)(F)F)nn1-c1ncccc1Br | ≥ 80% |
| Cc1cc(F)cc(C(=O)NCC2CC2)c1NC(=O)c1cc(Cn2nnc(C(F)(F)F)n2)nn1-c1ncccc1Cl | ≥ 80% |
| Cc1cc(Cl)cc(C(=O)NCC2CC2)c1NC(=O)c1cc(Cn2nnc(C(F)(F)C(F)(F)F)n2)nn1-c1ncccc1Cl | ≥ 80% |
| Cc1cc(C#N)cc(C(=O)NC(C)(C)C)c1NC(=O)c1cc(Cn2nnnc2C(F)(F)F)nn1-c1ccccc1C(F)(F)F | ≥ 80% |
| CNC(=O)c1cc(I)cc(C)c1NC(=O)c1cc(Cn2nnc(C(F)(F)C(F)(F)C(F)(F)F)n2)nn1-c1ncccc1Cl | ≥ 80% |
| NC(=O)c1cc(Cl)cc(Cl)c1NC(=O)c1cc(Cn2nnc(C(F)(F)F)n2)nn1-c1ncccc1Cl | ≥ 80% |
| CNC(=O)c1cc(Cl)cc(C)c1NC(=O)c1cc(Cn2nnc(C(F)(F)F)n2)nn1-c1ccccc1Br | ≥ 80% |
| CC(C)(C)NC(=O)c1cc(Cl)cc(Cl)c1NC(=O)c1cc(Cn2nnc(C(F)(F)C(F)(F)F)n2)nn1-c1ncccc1Cl | ≥ 80% |
| Cc1cc(C#N)cc(C(=O)NC(C)(C)C)c1NC(=O)c1cc(Cn2nnc(C3CC3)n2)nn1-c1ncccc1Cl | ≥ 80% |
| Cc1cc(Cl)cc(C(=O)NC(C)(C)C)c1NC(=O)c1cc(Cn2nnc(C(F)(C(F)(F)F)C(F)(F)F)n2)nn1-c1ncccc1Cl | ≥ 80% |
| CC(NC(=O)c1cc(Cl)cc(Cl)c1NC(=O)c1cc(Cn2nnc(C(F)(F)C(F)(F)F)n2)nn1-c1ncccc1Cl)C1CC1 (centres unmarked) | ≥ 80% |

###

Test system: larvae of the mustard beetle (Phaedon cochleariae)
Experiment: Phaedon test (PHAECO spray treatment)
Conditions: Phaedon cochleariae, in Brassica rapa, foliar, read-out: effect in % (beetle larvae killed)
# reported pest or weed control at 100 g/ha; entries follow
metric.name: pest or weed control at 100 g/ha

| molecule | measured |
| --- | --- |
| Cc1cc(C#N)cc(C(=O)NC2CCC2)c1NC(=O)c1cc(Cn2nnc(C(F)(F)C(F)(F)F)n2)nn1-c1ncccc1Cl [Example 139] | ≥ 80% |
| Cc1cc(Br)cc(C(=O)NC2CC2)c1NC(=O)c1cc(Cn2nnc(C(F)(F)F)n2)nn1-c1ncccc1C(F)(F)F [Example 229] | ≥ 80% |
| CCNC(=O)c1cc(C#N)cc(C)c1NC(=O)c1cc(Cn2nnc(C(F)(C(F)(F)F)C(F)(F)F)n2)nn1-c1ncccc1Cl [Example 369] | ≥ 80% |
| Cc1cc(C#N)cc(C(=O)NC(C)(C)C)c1NC(=O)c1cc(Cn2nnc(C(F)(F)C(F)(F)F)n2)nn1-c1ccccc1Cl [Example 434] | ≥ 80% |
| Cc1cc(I)cc(C(=O)NC2CC2)c1NC(=O)c1cc(Cn2nnc(C(F)(C(F)(F)F)C(F)(F)F)n2)nn1-c1ncccc1Cl [Example 379] | ≥ 80% |
| C=CCNC(=O)c1cc(Cl)cc(C)c1NC(=O)c1cc(Cn2nnc(C(F)(F)F)n2)nn1-c1ncccc1Cl [Example 319] | ≥ 80% |
| CNC(=O)c1cc(I)cc(C)c1NC(=O)c1cc(Cn2nnnc2C(F)(F)F)nn1-c1ncccc1Cl [Example 172] | ≥ 80% |
| Cc1cc(I)cc(C(N)=O)c1NC(=O)c1cc(Cn2nnc(C(F)(C(F)(F)F)C(F)(F)F)n2)nn1-c1ncccc1Cl [Example 382] | ≥ 80% |
| Cc1cc(I)cc(C(=O)NC2CC2)c1NC(=O)c1cc(Cn2nnc(C(F)(F)F)n2)nn1-c1ncccc1C(F)(F)F [Example 246] | ≥ 80% |
| Cc1cc(I)cc(C(=O)NC2CCC2)c1NC(=O)c1cc(Cn2nnc(C(F)(F)F)n2)nn1-c1ncccc1Cl [Example 72] | ≥ 80% |
| Cc1cc(C#N)cc(C(=O)NC(C)C2CCC2)c1NC(=O)c1cc(Cn2nnnc2C(F)(F)F)nn1-c1ncccc1Cl (centres unmarked) [Example 194] | ≥ 80% |
| CSC[C@H](C)NC(=O)c1cc(C#N)cc(C)c1NC(=O)c1cc(Cn2nnc(C(F)(F)C(F)(F)F)n2)nn1-c1ncccc1Cl [Example 216] | ≥ 80% |
| Cc1cc(I)cc(C(=O)NC(C)(C)C)c1NC(=O)c1cc(Cn2nnc(C(F)(F)F)n2)nn1-c1ncccc1C(F)(F)F [Example 242] | ≥ 80% |
| Cc1cc(I)cc(C(=O)NC(C)(C)C)c1NC(=O)c1cc(Cn2nnc(C(F)(F)C(F)(F)F)n2)nn1-c1ncccc1Cl [Example 218] | ≥ 80% |

###

Assay: log P determination by HPLC (EEC Directive 79/831 Annex V.A8)
Format: physicochemical
Conditions: log P
# reported chromatographic logP; entries follow

| compound | chromatographic logP |
| --- | --- |
| CCNC(=O)c1cc(C#N)cc(C)c1NC(=O)c1cc(C(C)n2nnc(C(F)(F)F)n2)nn1-c1ncccc1Cl (stereo not shown) | 3.11 |
| Cc1cc(C#N)cc(C(=O)NCC#N)c1NC(=O)c1cc(Cn2nnc(C(F)(F)F)n2)nn1-c1ncccc1Cl | 2.61 |
| Cc1cc(Br)cc(C(=O)NC(C)C)c1NC(=O)c1cc(Cn2nnc(C(F)(F)F)n2)nn1-c1ncccc1Cl | 3.57 |
| CNC(=O)c1cc(Cl)cc(Cl)c1NC(=O)c1cc(Cn2nnc(C(F)F)n2)nn1-c1ncccc1Cl | 2.48 |
| Cc1cc(I)cc(C(=O)NC(C)(C)C)c1NC(=O)c1cc(Cn2nnnc2C(F)(F)F)nn1-c1ncccc1Cl | 3.74 |
| Cc1cc(C#N)cc(C(=O)NCC2CC2(Cl)Cl)c1NC(=O)c1cc(Cn2nnnc2C(F)(F)F)nn1-c1ncccc1Cl (stereo not shown) | 3.16 |
| Cc1cc(Cl)cc(C(=O)NC(C)C2CC2)c1NC(=O)c1cc(Cn2nnnc2C(F)F)nn1-c1ncccc1Cl (stereo not shown) | 3.07 |

###

Experiment: log P determination by HPLC (EEC Directive 79/831 Annex V.A8)
Assay type: physicochemical
Settings: log P
Kindly return fulfilled if reported chromatographic logP is no lower than 3; return not fulfilled if it is lower.

| compound | assigned.label |
| --- | --- |
| CC(NC(=O)c1cc(Cl)cc(Cl)c1NC(=O)c1cc(Cn2nnc(C(F)(F)C(F)(F)F)n2)nn1-c1ncccc1Cl)C1CC1 (centres unmarked) [Example 150] | fulfilled |
| CC(C)NC(=O)c1cc(Cl)cc(Cl)c1NC(=O)c1cc(Cn2nnnc2C(F)(F)C(F)(F)F)nn1-c1ncccc1Cl [Example 205] | fulfilled |
| Cc1cc(F)cc(C(=O)NC(C)C)c1NC(=O)c1cc(Cn2nnc(C(F)F)n2)nn1-c1ncccc1Cl [Example 295] | not fulfilled |
| Cc1cc(C#N)cc(C(=O)NC(C)C(F)(F)F)c1NC(=O)c1cc(Cn2nnc(C(F)(F)F)n2)nn1-c1ncccc1Cl (centres unmarked) [Example 433] | fulfilled |
| Cc1cc(Cl)cc(C(=O)NC2CC2)c1NC(=O)c1cc(Cn2nnc(C(F)F)n2)nn1-c1ncccc1Cl [Example 230] | not fulfilled |
| Cc1cc(C)c(NC(=O)c2cc(Cn3nnc(C(F)(F)F)n3)nn2-c2ncccc2Cl)c(C(=O)NCC2CC2)c1 [Example 83] | fulfilled |
| O=C(NC1CC1)c1cc(Cl)cc(Cl)c1NC(=O)c1cc(Cn2nnc(C(F)(F)F)n2)nn1-c1ncccc1Cl [Example 57] | fulfilled |
| CNC(=O)c1cc(I)cc(C)c1NC(=O)c1cc(Cn2nnc(C(F)(F)F)n2)nn1-c1ncccc1Cl [Example 65] | fulfilled |
| CCNC(=O)c1cc(Br)cc(C)c1NC(=O)c1cc(Cn2nnc(C(F)(F)F)n2)nn1-c1ncccc1Cl [Example 34] | fulfilled |
| Cc1cc(C#N)cc(C(=O)NC(C)C2CCC2)c1NC(=O)c1cc(Cn2nnnc2C(F)(F)F)nn1-c1ncccc1Cl (centres unmarked) [Example 194] | fulfilled |
| Cc1cc(C#N)cc(C(=O)NC(C)C2CC2)c1NC(=O)c1cc(Cn2nnc(C(F)(F)F)n2)nn1-c1ncccc1Cl (centres unmarked) [Example 20] | fulfilled |
| Cc1cc(C#N)cc(C(=O)NC(C)C)c1NC(=O)c1cc(Cn2nnnc2C(F)(F)F)nn1-c1ncccc1Cl [Example 165] | not fulfilled |
| O=C(NCC1CC1)c1cc(Cl)cc(Cl)c1NC(=O)c1cc(Cn2nnc(C(F)(F)F)n2)nn1-c1ncccc1Cl [Example 63] | fulfilled |
